// provenance: ChEMBL document CHEMBL5370641

Assay Remarks: Metabolic stability in rat hepatocytes assessed as intrinsic clearance at 1 uM incubated for 1 to 4 hrs by LC-MS/MS analysis
Format: ADME, cell-based, Hepatocyte
Details: time 1-4 hrs, read-out: CLH (converted)
Numbered stars: 1 amine (or outer) side, 2 acyl side, 3 side chain; on linkers, the order of the positions; unused ones are H or OH. Square brackets hold non-standard residues; d marks the D form. Peptide text beside a SMILES is read from it. * marks the point of attachment. Benzenesulfonyl(4-Cl,3-CF3) = O=S(=O)(c1ccc(Cl)c(C(F)(F)F)c1)*; γGlu = O=C(O)[C@H](CCC(=O)[*:2])N[*:1]; 4Pal = N[C@@H](Cc1ccncc1)C(=O)O; Tle = CC(C)(C)[C@H](N)C(=O)O; β3hP = O=C(O)C[C@@H]1CCCN1
Measurement Kind: CLint scaled at 1 µM (mL/min/kg)
I only need the number, in mL/min/kg, no unit after it.

The molecule listed as CC(C)(C)[C@H](NC(=O)[C@H](Cc1ccncc1)NC(=O)CNC(=O)CC[C@H](NS(=O)(=O)c1ccc(Cl)c(C(F)(F)F)c1)C(=O)O)C(=O)N1CCC[C@H]1CC(N)=O ({Benzenesulfonyl(4-Cl,3-CF3)-γGlu}-G[4Pal][Tle][β3hP]-NH2) has a reported CLint scaled at 1 µM of 11
